B1: library; numbered along this chain (parent)
chain: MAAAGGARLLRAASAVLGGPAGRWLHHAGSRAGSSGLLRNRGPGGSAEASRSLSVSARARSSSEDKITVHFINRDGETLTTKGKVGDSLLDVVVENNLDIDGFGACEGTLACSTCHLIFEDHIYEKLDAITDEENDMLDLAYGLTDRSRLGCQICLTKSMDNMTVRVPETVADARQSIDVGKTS

- Variants of: B1
- Experiment summary: scaled log2 fold change in cell abundance, elesclomol vs control (0 = silent mean, 1 = nonsense mean) (scaled log2 ratio); higher = higher viability under elesclomol (loss of FDX1 cuproptosis function);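 also: variant abundance is its share of total variant reads in each endpoint sample, from next-generation sequencing of the integrated ORF PCR-amplified out of genomic DNA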
- Conditions: with HEK293T FDX1 KO; elesclomol 40 nM; glucose 10 mM; 11 days
Assign rule met to entries whose scaled log2 fold change meets or exceeds 0.3; assign rule not met to the rest.

Below are worked cases with known answers.
[
  {
    "Sequence change": "K82H",
    "Class label": "rule not met"
  },
  {
    "Sequence change": "A4S",
    "Class label": "rule met"
  },
  {
    "Sequence change": "R166K",
    "Class label": "rule not met"
  }
]

Task: Tell me whether scaled log2 fold change is at least 0.3 here: L98N
Result: rule met

Task: Also check H26Q
Result: rule met

Task: Also check S54D
Result: rule not met

Task: Also check I100R
Result: rule not met

Task: Also check A59W
Result: rule not met

Task: Also check E134D
Result: rule met

Task: Also check N162R
Result: rule not met

Task: Also check E48C
Result: rule met

Task: Also check G19F
Result: rule not met

Task: Also check A32E
Result: rule not met

Task: Also check D99Y
Result: rule not met

Task: Also check K84Y
Result: rule met

Task: Also check S50D
Result: rule not met

Task: Also check D75F
Result: rule met

Task: Also check L79R
Result: rule not met
